The origin of these recorded values is patent US20210061908A1.

- target_system: CL-11 (C)
- assay_summary: FACS on CL-11 cells (do not express IGSF11; negative cell line) treated with scrambled control siRNA (SC)
experimental_readout: percentage binding (%)
Report only the number, with the unit % understood.

# query: percentage binding of entry A-026 (human IgG1 format) (antibody, V domains shown, human IgG1 format) VH: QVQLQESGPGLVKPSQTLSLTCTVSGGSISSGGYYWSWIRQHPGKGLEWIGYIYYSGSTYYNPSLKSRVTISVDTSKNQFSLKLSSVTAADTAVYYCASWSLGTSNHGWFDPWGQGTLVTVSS VL: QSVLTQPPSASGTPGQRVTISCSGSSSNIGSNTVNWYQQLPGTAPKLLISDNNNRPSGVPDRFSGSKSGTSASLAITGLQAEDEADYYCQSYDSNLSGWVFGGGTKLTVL
3.6

Name the reported percentage binding value associated with the binder B-002 (chain-swapped, human IgG1 format) (antibody, V domains shown, VH of A-006 with VL of A-012; IgG1 format; also called B2; Chains-B-002) VH: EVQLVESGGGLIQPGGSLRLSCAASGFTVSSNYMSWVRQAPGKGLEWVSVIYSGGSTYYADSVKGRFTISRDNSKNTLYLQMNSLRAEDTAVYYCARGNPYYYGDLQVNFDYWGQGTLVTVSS VL: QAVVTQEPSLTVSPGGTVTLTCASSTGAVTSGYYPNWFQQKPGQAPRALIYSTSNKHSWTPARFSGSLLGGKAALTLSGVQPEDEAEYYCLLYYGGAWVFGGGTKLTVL
3
